metric: melting point

Reported melting point for COc1ccc(NC(=O)NC23CC4CC(CC(C4)C2)C3)cn1 : what is it?
205 to 211 °C

Reported melting point for O=C(Nc1ccc(C(F)(F)F)cc1)Nc1cc(C(=O)N2CCOCC2)cs1 : what is it?
250 to 253 °C

Reported melting point for COc1ccc(-c2nnc(NC(=O)Nc3cccc(C(F)(F)F)c3)s2)cc1 : what is it?
331 to 336 °C

Reported melting point for O=C(Nc1ccc(C(F)(F)F)cc1)Nc1cc(C(=O)N2CCOCC2)ccn1 : what is it?
200 to 206 °C

Reported melting point for O=C(Nc1ccc(C(F)(F)F)cc1)Nc1ccc(C(=O)N2CCOCC2)s1 : what is it?
250 to 253 °C

Reported melting point for CC(=O)Nc1ccc(NC(=O)Nc2ccc(Cl)cc2)cn1 : what is it?
269 to 271 °C

Reported melting point for O=C(Nc1ccc(Cl)cc1)Nc1ccc(C(=O)N2CCOCC2)s1 : what is it?
242 to 245 °C

Reported melting point for O=C(Nc1ccc(C(F)(F)F)cc1)Nc1ccc(C(=O)N2CCOCC2)cn1 : what is it?
233 to 237 °C

Reported melting point for O=C(Nc1cccc(C(F)(F)F)c1)Nc1cccc(C(=O)N2CCOCC2)n1 : what is it?
175 to 179 °C

Where these numbers come from: patent US20090082350A1
